Listing of recorded koff by entry.
molecular target: T1, monovalent hVISTA-ECD (amino acids 32-193 of SEQ ID NO: 1 with a 7xHis tail) (human, UniProt Q9H7M9 33-193); test: SPR 37C, Ab on Protein A, hVISTA-ECD 50-5 nM, pH 6.0, average
T1 construct: analyte of the SPR assays; also called huVISTA-His; human VISTA-ECD
T1 sequence (Q9H7M9 other isoform, or with tags, fused parts or gaps limits assumed): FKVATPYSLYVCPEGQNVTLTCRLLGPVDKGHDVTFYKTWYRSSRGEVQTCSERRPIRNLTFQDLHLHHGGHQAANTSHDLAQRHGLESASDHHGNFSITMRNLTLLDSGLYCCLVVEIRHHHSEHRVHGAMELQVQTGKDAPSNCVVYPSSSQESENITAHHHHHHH
ASSAY READOUT: koff (s⁻¹)

INSERT INTO measurements (binder, units_of_measure, measurement) VALUES
  ('P1-068752 (antibody, human IgG1, kappa, V domains shown, IgG1.3) VH: QVQLVESGGGVVQPGRSLRLSCAASGFTFSSYAMHWVRQAPGKGLEWVAEIWYDGSNKDYADSVKGRFTISRDNSKNTLYLQMNSLRAEDTAVYYCARDSGFYDSYYFDEWGQGTLVTVSS VL: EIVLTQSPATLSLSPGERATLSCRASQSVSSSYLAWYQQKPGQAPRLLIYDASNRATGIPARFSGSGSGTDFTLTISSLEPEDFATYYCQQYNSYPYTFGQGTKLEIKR', 's⁻¹', 0.034),
  ('P1-068748 (antibody, human IgG1, kappa, V domains shown, IgG1.3; also called P1-068748-6) VH: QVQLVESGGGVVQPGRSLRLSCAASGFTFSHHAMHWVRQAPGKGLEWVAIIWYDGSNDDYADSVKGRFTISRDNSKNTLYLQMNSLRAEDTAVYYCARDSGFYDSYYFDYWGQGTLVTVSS VL: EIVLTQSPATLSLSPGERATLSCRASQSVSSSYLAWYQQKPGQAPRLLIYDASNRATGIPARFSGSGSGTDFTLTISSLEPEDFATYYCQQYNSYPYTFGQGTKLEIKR', 's⁻¹', 0.0015),
  ('P1-068736 (antibody, human IgG1, kappa, V domains shown, IgG1.3) VH: QVQLVESGGGVVQPGRSLRLSCAASGFTFSEYAMHWVRQAPGKGLEWVAIDWYDGSNKDYADSVKGRFTISRDNSKNTLYLQMNSLRAEDTAVYYCARDSGFYDSYYFDDWGQGTLVTVSS VL: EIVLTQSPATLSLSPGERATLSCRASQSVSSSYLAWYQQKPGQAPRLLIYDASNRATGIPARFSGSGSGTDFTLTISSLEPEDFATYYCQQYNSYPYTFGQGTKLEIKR', 's⁻¹', 0.0095),
  ('P1-068744 (antibody, human IgG1, kappa, V domains shown, IgG1.3; also called P1-068744-7) VH: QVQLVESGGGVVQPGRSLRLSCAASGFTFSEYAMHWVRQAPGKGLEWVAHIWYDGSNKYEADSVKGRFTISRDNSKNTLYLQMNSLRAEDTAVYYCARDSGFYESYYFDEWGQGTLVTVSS VL: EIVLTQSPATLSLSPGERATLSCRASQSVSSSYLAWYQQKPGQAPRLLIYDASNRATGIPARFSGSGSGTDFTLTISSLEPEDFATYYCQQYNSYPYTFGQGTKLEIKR', 's⁻¹', 0.0018);
